- System: PRMT1 (protein arginine N-methyltransferase 1)
- ASSAY_TEXT: PRMT1 binders on small-molecule microarrays, primary screen, biochemical, small-molecule microarray, 635 nm fluorescence (AID 1088);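 also: binding of Prmt1 protein to compounds spotted on small-molecule microarray slides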
- REPORTED_CONDITIONS: small-molecule microarray binding, higher = more signal
Listing: composite z-score of selected molecules
Please give only the number in your answer, with no unit.

**Query** Please give the documented composite z-score of COc1ccc(C#Cc2ccc3c(c2)[C@]2(C(=O)N3)[C@H](c3ccccc3OCCO)N3[C@H](c4ccccc4)[C@H](c4ccccc4)OC(=O)[C@H]3[C@@H]2C(=O)Nc2nc3ccccc3s2)cc1
**Result** 1.54

**Query** Please give the documented composite z-score of CCOC(=O)C[C@H]1[C@H](OC(=O)c2ccc(C(=O)c3ccccc3)cc2)[C@@H](NC(=O)CC(C)C)c2cc(OCCCO)ccc2N1C(=O)c1ccc2ccccc2n1
**Result** 1.48

**Query** Please give the documented composite z-score of COC(=O)[C@@]1(Cc2ccc(OC)cc2)[C@H]2c3cc(C(=O)N4CCCC4)n(Cc4ccc(C)c(F)c4F)c3C[C@H]2CN1C(=O)c1ccccc1
**Result** 0.998

**Query** Please give the documented composite z-score of COCCOC(=O)N1C(=O)[C@@]2(c3ccccc31)[C@H](C(=O)N1CCc3cc(OC)c(OC)cc3C1)[C@H]1C(=O)O[C@H](c3ccccc3)[C@H](c3ccccc3)N1[C@@H]2c1ccc(OCCO)cc1
**Result** 1.51

**Query** Please give the documented composite z-score of CC(C)N1C(=O)c2ccccc2[C@](C)(C(=O)NCCN2CCOCC2)[C@@H]1c1ccc(CO)cc1
**Result** 1.2

**Query** Please give the documented composite z-score of C=CC[C@@]12N=C(c3ccc(OCCCO)cc3)O[C@@H]1c1ccccc1N(C)C2=O
**Result** 1.55

**Query** Please give the documented composite z-score of [N-]=[N+]=NCc1ccccc1[C@@H]1OC(c2ccc(OCCCO)cc2)=N[C@]1(Cc1ccccc1)C(=O)NCC(O)CO (some centres not stated)
**Result** 1.25

**Query** Please give the documented composite z-score of CC(CO)N1C(=O)[C@@H]2C3C(=O)OCCC/C=C\[C@H]3OC23C=CCN(C(C)(C)C)C(=O)[C@@H]13 (some centres not stated)
**Result** 0.0207

**Query** Please give the documented composite z-score of COCCOC(=O)N1C(=O)[C@@]2(c3cc(C#CCC(C(=O)OC)C(=O)OC)ccc31)[C@H](c1ccccc1OCCO)N1[C@H](c3ccccc3)[C@H](c3ccccc3)OC(=O)[C@H]1[C@@H]2C(=O)N1CCN(c2ncccn2)CC1
**Result** 1.54

**Query** Please give the documented composite z-score of Cc1ccc(N2C(=O)c3ccccc3[C@@H](C(=O)NC3CC3)[C@@H]2c2ccc(CO)cc2)nc1
**Result** -1.57

====

- ASSAY_TEXT: HepG2 liver cancer cell viability effects, profiling panel, resazurin fluorescence, 24 h, PK04 Diversity Set (AID 1172); also: test concentration not given here
- REPORTED_CONDITIONS: higher = more signal
Listing: z-score of selected molecules

Some molecules with recorded z-score:
>>> endpoint_value("COCCOC(=O)N1C(=O)[C@@]2(c3cc(C#CCC(C(=O)OC)C(=O)OC)ccc31)[C@H](c1ccccc1OCCO)N1[C@H](c3ccccc3)[C@H](c3ccccc3)OC(=O)[C@H]1[C@@H]2C(=O)N1CCN(c2ncccn2)CC1")
0.326
>>> endpoint_value("O=C(NC1CC1)[C@@H]1c2ccccc2C(=O)N(Cc2ccccc2Cl)[C@H]1c1ccc(CO)cc1")
0.382
>>> endpoint_value("CC(C)C(=C=CC[C@H](O)c1ccc(OCCO)cc1)CCO")
0.933
>>> endpoint_value("CC(C)CNC(=O)[C@@]1(Cc2ccccc2I)c2ccccc2C(=O)N(C2CCCCC2)[C@H]1c1ccc(CO)cc1")
-0.462
>>> endpoint_value("C=CCNC(=O)[C@@H]1[C@H]2C(=O)O[C@H](c3ccccc3)[C@H](c3ccccc3)N2[C@H](c2ccc(O)cc2)[C@@]12C(=O)N(C(=O)OCCOC)c1ccc(C#CCNC(N)=O)cc12")
-0.0359
>>> endpoint_value("COC(=O)[C@@]1(Cc2ccccc2)[C@H]2c3cc(C(=O)N4CCCC4)n(Cc4ccc(S(C)(=O)=O)cc4)c3C[C@H]2CN1C(=O)c1ccccc1")
-0.837

**Query** Please give the documented z-score of CCCC[C@@H]1C[C@H]1[C@@H](NC(=O)c1ccco1)c1ccc(-c2ccccc2)cc1
**Result** -0.9

**Query** Please give the documented z-score of C=C(COC)/C(=C/C[C@H](OC(C)=O)c1ccc(CO)o1)c1cc(C(=O)OC)ccc1OC
**Result** -0.613

**Query** Please give the documented z-score of CCOC(=O)C[C@H]1[C@H](OC(=O)c2ccc(C(=O)c3ccccc3)cc2)[C@@H](NC(=O)c2ccc3ccccc3n2)c2cc(OCCCO)ccc2N1C(=O)c1ccccc1
**Result** -0.0237

**Query** Please give the documented z-score of COc1ccc(CCNC(=O)[C@@]2(C)c3ccccc3C(=O)N(C(C)C)[C@H]2c2ccc(CO)cc2)cc1
**Result** -0.848

**Query** Please give the documented z-score of COCCOC(=O)N1C(=O)[C@@]2(c3cc(C#CCC(C(=O)OC)C(=O)OC)ccc31)[C@H](C(=O)Nc1nc3ccccc3s1)[C@H]1C(=O)O[C@H](c3ccccc3)[C@H](c3ccccc3)N1[C@@H]2c1ccccc1OCCO
**Result** -0.397

**Query** Please give the documented z-score of [N-]=[N+]=NCc1ccccc1[C@@H]1OC(c2ccc(OCCCO)cc2)=N[C@]1(Cc1ccccc1)C(N)=O
**Result** 0.854

**Query** Please give the documented z-score of C=CC(=C)[C@H]1Oc2ccccc2S(=O)(=O)N2CCC[C@@H]12
**Result** -0.702

**Query** Please give the documented z-score of O=C(NCCN1CCOCC1)C1N=C(c2ccc(OCCCO)cc2)N(c2ccccc2)O1 (centres undefined)
**Result** -0.154
